- PROTOCOL_NOTES: in vitro
- EXPERIMENTAL_CONTEXT: human, hela cells, % viability
READOUT_NAME: viability at 28.5 h, 10 µM

molecule="CC(=O)Nc1cccc(-c2nccnc2NCC2CC2)c1 [CBK037962]" obs_value=90.4%
molecule="CCOc1ccccc1C(=O)N1CCC(c2cc(C(=O)NC(C)C)c3ccccc3n2)C1 (stereo not drawn) [CBK285918]" obs_value=106%
molecule="O=C(CC1S\\C(=N/N=C/C=C/c2ccccc2)N=C1O)Nc1ccc(C(=O)O)cc1 (stereo not drawn) [CBK263711]" obs_value=101%
molecule="O=C(CCc1ccc(O)c(O)c1)NNC(=S)Nc1ccccc1C(F)(F)F [CBK267104]" obs_value=94.2%
molecule="OCCN1CC2(CCN(Cc3ccc4ccccc4c3)CC2)c2ccccc21 [CBK131529]" obs_value=92.6%
molecule="CC(C(=O)NCCC1=CCCCC1)N1CCOC(Cn2cccn2)C1 (stereo not drawn) [CBK305319]" obs_value=101%
molecule="O=C(O)c1ccc(CNC(=S)NCC2CCCO2)cc1 (stereo not drawn) [CBK266908]" obs_value=98.2%
molecule="CC(c1cc2ccccc2s1)N(O)C(N)=O (stereo not drawn) [CBK008078]" obs_value=98.2%
molecule="COc1nc(N(C)C)nc(N2CC(=O)N(c3ccccc3)C2=N)n1 [CBK269079]" obs_value=87.6%
molecule="Cn1c(SCC(=O)c2ccc(O)c(O)c2)nnc1-c1ccccc1 [CBK262544]" obs_value=81.5%
molecule="COc1ccc(OCc2nc(-c3cccs3)no2)cc1 [CBK269782]" obs_value=91.7%
molecule="O=C(Cn1c(C2CCNCC2)cc2cccnc21)N1CCCC1 [CBK285013]" obs_value=96.3%
molecule="c1ccc(CNC2CCc3[nH]c4ccccc4c3C2)cc1 (stereo not drawn) [CBK091587T]" obs_value=106%
molecule="Cc1cccnc1C(Cc1ccsc1)NC(=O)Cn1ccnc1 (stereo not drawn) [CBK284802]" obs_value=94.1%
molecule="CCCC(=O)Nc1ccc(-c2csc(NC(=O)C3CCCO3)n2)cc1 (stereo not drawn) [CBK305854]" obs_value=77.8%
molecule="CN1CCc2c(sc3nc(SCC(=O)c4ccccc4)n(-c4ccccc4)c(=O)c23)C1 [CBK262586]" obs_value=85.8%
molecule="CCC(=O)Nc1ccc(-c2nc3ccccc3[nH]2)cc1 [CBK287561]" obs_value=98.7%
molecule="COC(C)CN(C)C(=O)c1cc2cc(C)ccc2nc1C (stereo not drawn) [CBK282036]" obs_value=86.5%
molecule="Cc1nc2c(c(=O)[nH]1)CCN(C(=O)c1oc3ccccc3c1C)C2 [CBK283752]" obs_value=111%
molecule="COc1cc2c(cc1OC)C(CCN1CCN(c3ccccc3C)CC1)OCC(C)(C)C2 (stereo not drawn) [CBK024043C]" obs_value=98.5%
molecule="O=C(N/N=C/C1C=Nc2ccccc21)c1cc([N+](=O)[O-])cc([N+](=O)[O-])c1 (stereo not drawn) [CBK261485]" obs_value=89.8%
molecule="O=C(Cc1ccccc1)N/N=C/c1nnco1 [CBK021274]" obs_value=121%
molecule="O=C(O)c1ccc2c(c1)C(=O)N(c1ccc3c(c1)Cc1cc(N4C(=O)c5ccc(C(=O)O)cc5C4=O)ccc1-3)C2=O [CBK261333]" obs_value=90.5%
molecule="O=C(Nc1ccc(F)cc1F)Nc1cc(Cl)sc1Cl [CBK019967]" obs_value=102%
molecule="Nc1nc2c(s1)c(=O)[nH]c(=O)n2-c1ccc(Cl)cc1 [CBK269891]" obs_value=78.1%
molecule="Oc1ccc(CCNc2ncnc3[nH]cnc23)cc1 [CBK017724C]" obs_value=101%
molecule="COc1ccccc1-n1nc(-c2ccncc2)nc1C1CCOCC1 [CBK307229]" obs_value=95%
molecule="O=C(N[C@H]1CCN(Cc2ccccc2)C1)c1cnc(-c2ccccc2)c(-c2ccncc2)c1 [CBK036639]" obs_value=84.7%
molecule="O=C1c2ccccc2NC(c2ccc(O)cc2)N1/N=C/c1ccc(O)cc1 (stereo not drawn) [CBK262985]" obs_value=84.5%
molecule="CN(C)CCCNC(=O)c1ccnc(/C=N/O)c1 [CBK288434]" obs_value=101%
molecule="CN(Cc1nc2c(s1)CCCC2)C(=O)COc1ccc2nncn2n1 [CBK306758]" obs_value=98.9%
molecule="CCCc1cc(C(=O)OC)c(NC(=O)CC2Nc3ccccc3NC2=O)s1 (stereo not drawn) [CBK269451]" obs_value=107%
molecule="CCCCNC(=O)c1c(N)n(-c2ccc(C(=O)O)cc2)c2nc3ccccc3nc12 [CBK300500]" obs_value=82.7%
molecule="CCCCOc1ccc(C(=O)N/C(=C/c2ccc(OC)cc2)C(=O)O)cc1 [CBK300490]" obs_value=87.5%
molecule="O=C(O)CSc1nc2c(-c3ccco3)c3c(nc2o1)CCCC3 [CBK269266]" obs_value=104%
molecule="COc1cc(CNC(=O)N2CCC(C(=O)O)CC2)cc(OC)c1OC [CBK161401]" obs_value=81.5%
molecule="Cc1cccc(CNc2nccnc2-c2cccs2)c1 [CBK036808]" obs_value=104%
molecule="c1coc(-c2cc(Nc3ccc4[nH]ccc4c3)ncn2)c1 [CBK090862]" obs_value=95.5%
molecule="OCCN(Cc1cccs1)Cc1c[nH]nc1-c1cccs1 [CBK282599]" obs_value=86%

====

- PROTOCOL_NOTES: in vitro
- EXPERIMENTAL_CONTEXT: human, hela cells, % viability
READOUT_NAME: viability at 28.5 h, 10 µM (%)

compound=O=C(NCc1ccccn1)c1cc2cc(F)ccc2[nH]1 obs_value=102
compound=O=[N+]([O-])c1ccccc1CN1C[C@H](O)C[C@H]1c1nc(-c2ccncc2)no1 obs_value=91.2
compound=C(=C/c1ccccc1)/C=N/c1ccc2nc(-c3ccc(/N=C/C=C/c4ccccc4)cc3)[nH]c2c1 obs_value=87.9
compound=c1ccc2c(c1)CCN(Cc1ccc3ccccc3c1)C2 obs_value=122
compound=Cc1cc(N2CCN(C(=O)CCc3ccco3)CC2)nc(C(C)C)n1 obs_value=106
compound=CS(=O)(=O)N1CC2(CCN(C(=O)[C@@H]3CNC[C@H]3c3ccccc3)CC2)c2ccccc21 obs_value=104
compound=CCOC(=O)c1cnc2nc(N3CCOCC3)nn2c1N obs_value=96.2
compound="CC(=O)N1Cc2ccccc2OC2(CCCN(C(=O)C3CC3)C2)C1 (centres unmarked)" obs_value=97.1
compound=COCCNc1cccc(Cn2c(=O)n(C)c3c2c(=O)nc(OC)n3C)c1 obs_value=84.3
compound=CC(=O)CCCCC(=O)N1CCC2(CC1)CC(=O)c1cc(C)c(C)cc1O2 obs_value=106
compound="CCN(CC)C(=O)C1CCCN(C(=O)c2ccc3c(c2)COC(C2CCN(C(=O)OC(C)(C)C)CC2)O3)C1 (centres unmarked)" obs_value=100
compound="CC(C)(C)OC(=O)N[C@@H]1C(=O)OC(C(O)CO)[C@@H]1O (some centres unmarked)" obs_value=118
compound="Cc1nn(C)cc1CNC(=O)C1C2CCC(C2)C1C(=O)O (centres unmarked)" obs_value=89.3
compound="O=C1CC(c2ccccc2)c2c(n3ncnc3[nH]c2=O)N1 (centres unmarked)" obs_value=89.4
compound="CCN(CC1CCN(C)C1)C(=O)c1cc(COc2cccc(F)c2)[nH]n1 (centres unmarked)" obs_value=88.8
compound=CCN(CC)CCN(Cc1ccc2c(c1)OCO2)C(=O)Nc1ccc(C)cc1 obs_value=89.3
compound=Cc1cnc(CNC(=O)c2ccc3nc[nH]c3c2)cn1 obs_value=88.4
compound=Cc1ccccc1CSCCNC(=O)Nc1ccc(Cl)cc1 obs_value=101
compound=O=C(Nc1ccccc1)N1C[C@@H]2C[C@H](C1)c1c(-c3cccnc3)ccc(=O)n1C2 obs_value=92.3
compound=COc1ccc(Cn2nc(N)c3ccccc32)cc1 obs_value=93.3
compound=Cc1noc(C)c1CC(=O)NCc1ccc(CN2CCCCC2)cc1 obs_value=93.6
compound=CCc1c(C)nc2ccc(Br)cc2c1SCCC(=O)O obs_value=113
compound=CN1CCN(C(=O)c2cccc(-c3ncc(OCC(F)(F)F)nc3N)c2)CC1 obs_value=91.3
compound="CCC(O)CNS(=O)(=O)c1ccc(C(C)C)cc1 (centres unmarked)" obs_value=91.6
compound=C[C@H](Nc1cncc(-c2cccnc2)n1)c1ccccc1 obs_value=96.7
compound=CCCN1CCN(c2ncc(CNS(=O)(=O)c3ccc(Cl)cc3)cn2)CC1 obs_value=101
compound=CC(C)OC(=O)COc1ccc2c(=O)c(Oc3ccccc3Br)coc2c1 obs_value=94
compound=CC(C)N1CCC(CNC(=O)c2cccc(N3CCCC3=O)c2)CC1 obs_value=104
compound=FC(F)(F)c1[nH]c2ncccc2c1CN1CCSCC1 obs_value=87.7
compound="O=c1[nH]c(=O)n([C@@H]2O[C@H](CO)[C@H](O)C2O)cc1Br (some centres unmarked)" obs_value=87.2
compound=Cc1ccc(S(=O)(=O)N(C)CC(=O)Nc2ncc(C(F)(F)F)cc2Cl)cc1 obs_value=94.8
compound=Cc1c(C)n(CC(=O)O)c2ccccc12 obs_value=97
compound=C=CCNC(=O)N[C@H]1[C@H](O)[C@@H](N(CC)CC)[C@@H]2OC[C@H]1O2 obs_value=91.1
compound=COCCc1noc(CC2CCN(c3ncc(C#N)cc3F)CC2)n1 obs_value=115
compound=O=C(O)Cc1ccc(NC(=O)c2cccnc2C(=O)O)cc1 obs_value=97.2
compound=Cc1nccn1-c1ccc(NC(=O)c2ccn(C(F)F)n2)cc1 obs_value=110
compound=O=C(Oc1cccc(-c2cnc3ccccc3n2)c1)c1cccc(S(=O)(=O)N2CCOCC2)c1 obs_value=89.3
compound=OCCCNC(=S)Nc1ccc(Cl)cc1Cl obs_value=96.6
